# Tested on: CCRIS mutagenicity, Ames/micronucleus/aberration tests
# Test Name: CCRIS mutagenicity studies
# Measurement Setup: Test System: AMES SALMONELLA TYPHIMURIUM; Strain/Indicator: TA1538; Metabolic Activation: RAT, LIVER, S-9, AROCLOR 1254; Method: STANDARD PLATE
Active and inactive are the calls of the source. How the calls were made is not given here.
Please answer using one outcome listed in active, inactive

Data request: Could you please tell me the result logged for `C=CC(=O)OCC` in this assay?
Data returned: inactive

Data request: And for `O=c1[nH]cnc2[nH]ncc12` ?
Data returned: inactive

Data request: And for `Nc1ccc2cc3ccccc3cc2c1` ?
Data returned: active

Data request: And for `CC(=O)O[C@]1(C(C)=O)CC[C@H]2[C@@H]3C[C@H](C)C4=CC(=O)CC[C@]4(C)[C@H]3CC[C@@]21C` ?
Data returned: inactive

Data request: And for `CN(CCO)C(=O)Nc1ccc(Cl)c(Cl)c1` ?
Data returned: inactive

Data request: And for `CC1=CC(=O)C=C2CC[C@@H]3[C@H](CC[C@]4(C)C(=O)CC[C@@H]34)[C@@]12C` ?
Data returned: inactive

Data request: And for `Cc1cc(N)c([N+](=O)[O-])cc1N` ?
Data returned: active

Data request: And for `Nc1cc2c(O)c(N=Nc3ccc(N=Nc4ccc(S(=O)(=O)O)cc4)c4ccc(S(=O)O)cc34)c(S(=O)(=O)O)cc2cc1S(=O)(=O)O` ?
Data returned: inactive

Data request: And for `O=C/C=C/C=C/C=O` ?
Data returned: inactive

Data request: And for `CCN(CC[N+](C)(C)C)c1ccc(N=Nc2ccc([N+](=O)[O-])cc2Cl)cc1` ?
Data returned: active

Data request: And for `Nc1ccc(-c2ccccc2)cc1` ?
Data returned: active

Data request: And for `CC=O` ?
Data returned: inactive

* * *

# System: CCRIS mutagenicity, Ames/micronucleus/aberration tests
# Test Name: CCRIS mutagenicity studies
# Measurement Setup: Test System: AMES SALMONELLA TYPHIMURIUM; Strain/Indicator: TA98; Metabolic Activation: RAT, LIVER, S-9, PCB; Method: STANDARD PLATE
Calls of active or inactive are those of the source. How the calls were made is not given here.
Please answer using one outcome listed in t for active, f for inactive

Data request: Could you please tell me the result logged for `Cc1ccc2c(ccc3ccccc32)c1` in this assay?
Data returned: t

Data request: And for `CC(=O)Oc1ccccc1C(=O)O` ?
Data returned: f

Data request: And for `Nc1ccc(Oc2ccc(N)cc2)cc1` ?
Data returned: t

* * *

# Test system: CCRIS mutagenicity, Ames/micronucleus/aberration tests
# Test Name: CCRIS mutagenicity studies
# Measurement Setup: Test System: AMES SALMONELLA TYPHIMURIUM; Strain/Indicator: TA98; Metabolic Activation: RAT, LIVER, S-9, AROCLOR 1254; Method: STANDARD PLATE
Active and inactive are the calls of the source. How the calls were made is not given here.
Please answer using one outcome listed in active, inactive

Data request: Could you please tell me the result logged for `O=[N+]([O-])c1ccc2c3c4c(cccc4c4ccccc4c13)[C@H](O)[C@H]2O` in this assay?
Data returned: active

Data request: And for `O=C(O)C[C@H](NC(=O)COc1ccc(Cl)cc1Cl)C(=O)O` ?
Data returned: inactive

Data request: And for `C=C1CC[C@H]2C[C@@H]1C2(C)C` ?
Data returned: inactive

Data request: And for `OCCNc1ccc(N=Nc2ccc(NCCO)cc2)cc1` ?
Data returned: active

Data request: And for O=C(O)C1Cc2c([nH]c3ccccc23)C(CO)N1 (configuration not stated) ?
Data returned: inactive

Data request: And for `CC/C(C)=N\O` ?
Data returned: inactive

Data request: And for Cc1ccc2c(c1)-c1ccccc1C2C (configuration not stated) ?
Data returned: active

Data request: And for `CC(=O)Nc1ccc2c(c1OC(=O)c1ccccc1)Cc1ccccc1-2` ?
Data returned: inactive

Data request: And for C1CCC2OCCOCCOCCOC3CCCCC3OCCOCCOCCOC2C1 (configuration not stated) ?
Data returned: inactive

Data request: And for `CC(C)(C)NC[C@H](O)COc1ccccc1C1CCCC1` ?
Data returned: inactive

Data request: And for CCCCC(CC)COP(=O)(OCC(CC)CCCC)OCC(CC)CCCC (configuration not stated) ?
Data returned: inactive

Data request: And for `CC(=O)N(O)c1ccc(Sc2ccccc2)cc1` ?
Data returned: active
